Each recorded value in this set is attributed to PubChem BioAssay (NCATS).

PROTOCOL DESCRIPTION: qHTS profiling of the MIPE4 collection as inhibitors of Plasmodium falciparum (DD2) proliferation (Rep 2) (AID 743346)
ASSAY SETUP: P. falciparum Dd2 in erythrocytes, SYBR Green DNA, 72 h; at 28.5 µM
In plain terms, low parasite growth, % of control (lower = inhibition), meaning strictly below 20%, gives Criterion met, and everything else gives Criterion not met.

stdin: Hi there! Is parasite growth, % of control (lower = inhibition) for `CC=C(C)C(=O)O[C@H]1C(C)=C2[C@@H]3OC(=O)[C@@](C)(O)[C@@]3(O)[C@@H](OC(=O)CCC)C[C@](C)(OC(C)=O)[C@@H]2[C@@H]1OC(=O)CCCCCCC` below 20%, do you know?
stdout: Criterion met

stdin: Another compound to look at: `CCCN1CCO[C@@H]2c3cc(O)ccc3OC[C@@H]21`
stdout: Criterion not met

stdin: Another compound to look at: `CC1(N2CCC(n3c([C@@H]4CCCNC4)nc4ccccc43)CC2)CCCCCCC1`
stdout: Criterion met

====

PROTOCOL DESCRIPTION: qHTS of pediatric cancer cell lines to identify multiple opportunities for drug repurposing: Primary screen for SK-N-SH cells (AID 1347098); note: nearly all actives have a fitted effect of over 65% in size
ASSAY SETUP: SK-N-SH viability, CellTiter-Glo luminescence, 48 h; series mostly up to 57 µM
Inconclusive results are not listed. The source made the active and inactive calls. Calls come from the whole dose curve; as a rule, active = well fitted cell-killing curve with a large enough effect; inconclusive = small, poorly fitted or top-dose-only effect; inactive = no such curve, though single readings can be large or run the other way.
// one of active, inactive, no free text

Would you please look over these solved cases?
[
  {
    "SMILES CODE": "c1cc2ccc3cccc4ccc(c1)c2c34",
    "CLASS LABEL": "inactive"
  },
  {
    "SMILES CODE": "CC(=O)[O][Hg][c]1ccccc1",
    "CLASS LABEL": "active"
  },
  {
    "SMILES CODE": "CCCN(CCC)c1c([N+](=O)[O-])cc(S(N)(=O)=O)cc1[N+](=O)[O-]",
    "CLASS LABEL": "active"
  },
  {
    "SMILES CODE": "COC1=CC(C)=C[C@@H](C)[C@@H](O)[C@@H](C)CC(C)=CC=C[C@H](OC)[C@H]([C@@H](C)[C@@H](O)[C@H](C)[C@@]2(O)C[C@@H](O)[C@H](C)[C@@H](C(C)C)O2)OC1=O",
    "CLASS LABEL": "active"
  },
  {
    "SMILES CODE": "O=C1CCC[C@@H]2[C@H]3CCCN4CCC[C@@H](CN12)[C@@H]34",
    "CLASS LABEL": "inactive"
  },
  {
    "SMILES CODE": "CCCCCC[C@H]1C(=O)O[C@H](C)[C@H](NC(=O)c2cccc(NC=O)c2O)C(=O)O[C@@H](C)[C@@H]1OC(=O)CC(C)C",
    "CLASS LABEL": "inactive"
  },
  {
    "SMILES CODE": "O=[N+]([O-])/N=C1\\NCCN1Cc1ccc(Cl)nc1",
    "CLASS LABEL": "inactive"
  },
  {
    "SMILES CODE": "CCCCCCCCCCCCCCCC[N+](C)(C)C",
    "CLASS LABEL": "active"
  }
]

stdin: // param item: `CCN1CCN(C(=O)Cc2ccc(Nc3ncc(F)c(Nc4ccc(C(=O)Nc5ccccc5Cl)cc4)n3)cc2)CC1` ; yields the recorded call
stdout: active

====

Tested on: 7G8
PROTOCOL DESCRIPTION: qHTS profiling for inhibitors of Plasmodium falciparum proliferation (AID 504749); note: nearly all actives have a fitted effect of over 60% in size
ASSAY SETUP: P. falciparum in erythrocytes, SYBR Green DNA, 72 h; series mostly up to 28.7 µM
Inconclusive results are not listed. Activity calls are given as the source filed them. Calls come from the whole dose curve; as a rule, active = well fitted inhibition curve with a large enough effect; inconclusive = small, poorly fitted or top-dose-only effect; inactive = flat fitted curve, though single readings scatter.
// one of active, inactive, no free text

Would you please look over these solved cases?
[
  {
    "COMPOUND": "COC(=O)[C@@H](N)CCCN=C(N)N[N+](=O)[O-]",
    "TARGET ENTITY": "7G8",
    "CLASS LABEL": "inactive"
  },
  {
    "COMPOUND": "NC1=NC(=O)N2CC12 (stereo not given)",
    "TARGET ENTITY": "7G8",
    "CLASS LABEL": "active"
  },
  {
    "COMPOUND": "C=CCN1CC[C@]23CCCCC2[C@H]1Cc1ccc(O)cc13 (stereo not given in full)",
    "TARGET ENTITY": "7G8",
    "CLASS LABEL": "active"
  },
  {
    "COMPOUND": "C[C@]12CCC(=O)C(O)=C1CC[C@@H]1[C@H]3CCC(=O)[C@@]3(C)CC[C@@H]12",
    "TARGET ENTITY": "7G8",
    "CLASS LABEL": "inactive"
  }
]

Now consider the entry below.
stdin: // param item: `O=C(O)C(Cl)Cl` ; yields the recorded call
stdout: inactive

====

PROTOCOL DESCRIPTION: qHTS profiling for inhibitors of Plasmodium falciparum (HB3) proliferation (AID 743324);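 note: 100% = DMSO vehicle wells and 0% = artemisinin-treated control wells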
ASSAY SETUP: Plasmodium falciparum HB3 blood-stage proliferation; at 28.7 µM (top of the series) unless noted
In plain terms, low remaining proliferation (% of control), lower = more inhibition, meaning strictly below 50%, gives Fulfilled, and everything else gives Not fulfilled.

[
  {
    "SMILES CODE": "O=C(Oc1ccc([N+](=O)[O-])cc1)N1CCC(C(O)(c2ccc3c(c2)OCO3)c2ccc3c(c2)OCO3)CC1",
    "CLASS LABEL": "Not fulfilled"
  },
  {
    "SMILES CODE": "CC(C)(C)c1[nH]cnc1C=c1[nH]c(=O)c(=Cc2ccccc2)[nH]c1=O",
    "CLASS LABEL": "Fulfilled"
  }
]

stdin: Hi there! Is remaining proliferation (% of control), lower = more inhibition for `CC(=O)Nc1ccc(OC[C@](C)(O)C(=O)Nc2ccc([N+](=O)[O-])c(C(F)(F)F)c2)cc1` below 50%, do you know?
stdout: Not fulfilled

stdin: Another molecule to look at: `CC(C)[C@]12O[C@H]1[C@@H]1O[C@]13[C@]1(O[C@H]1C[C@H]1C4=C(CC[C@@]13C)C(=O)OC4)[C@@H]2O`
stdout: Not fulfilled

stdin: Another molecule to look at: `Nc1nc(-c2nn(Cc3ccccc3F)c3ncccc23)nc(N)c1N1CCOCC1`
stdout: Not fulfilled

stdin: Another molecule to look at: `CC(C)[C@H]1C(=O)N[C@H](CO)Cc2c[nH]c3cccc(c23)N1C`
stdout: Not fulfilled

stdin: Another molecule to look at: `C1=CCOCc2cc(ccc2OCCN2CCCC2)Nc2nccc(n2)-c2cccc(c2)OCC1`
stdout: Not fulfilled

stdin: Another molecule to look at: `CCCCN1CCC(CNC(=O)c2c3n(c4ccccc24)CCCO3)CC1`
stdout: Not fulfilled

stdin: Another molecule to look at: `C=CCON=C(C[C@H]1O[C@@H]2O[C@]3(C)CC[C@@H]4[C@H](C)CC[C@@H]([C@H]1C)[C@@]24OO3)[C@H]1O[C@@H]2O[C@]3(C)CC[C@H]4[C@H](C)CC[C@@H]([C@@H]1C)[C@@]24OO3`
stdout: Fulfilled

stdin: Another molecule to look at: `Cc1c(C(=O)Nc2cccc(C(F)(F)F)c2)cc(-c2ccccc2)n1CCCN1CCOCC1`
stdout: Fulfilled

====

Tested on: Dd2
PROTOCOL DESCRIPTION: qHTS profiling for inhibitors of Plasmodium falciparum proliferation (AID 504749); note: nearly all actives have a fitted effect of over 60% in size
ASSAY SETUP: P. falciparum in erythrocytes, SYBR Green DNA, 72 h; series mostly up to 28.7 µM
Inconclusive results are not listed. The source made the active and inactive calls. Calls come from the whole dose curve; as a rule, active = well fitted inhibition curve with a large enough effect; inconclusive = small, poorly fitted or top-dose-only effect; inactive = flat fitted curve, though single readings scatter.
// one of true (1) (active), false (0) (inactive), no free text

Would you please look over these solved cases?
[
  {
    "COMPOUND": "NC(=O)CN1CC(O)CC1=O (configuration not stated)",
    "CLASS LABEL": "false (0)"
  },
  {
    "COMPOUND": "C1CCC(NC2CCCCC2)CC1",
    "CLASS LABEL": "false (0)"
  },
  {
    "COMPOUND": "CN(C)[C@@H]1C(=O)C(C(N)=O)=C(O)[C@@]2(O)C(=O)C3=C(O)c4c(O)cccc4[C@@](C)(O)[C@H]3[C@H](O)[C@@H]12",
    "CLASS LABEL": "true (1)"
  },
  {
    "COMPOUND": "CC(=O)OCC1=C(C(=O)O)N2C(=O)[C@@H](N)[C@@H]2SC1",
    "CLASS LABEL": "false (0)"
  },
  {
    "COMPOUND": "COC(=O)[C@@H](N)CCCN=C(N)N[N+](=O)[O-]",
    "CLASS LABEL": "false (0)"
  },
  {
    "COMPOUND": "C[C@]12CCC(=O)C(O)=C1CC[C@@H]1[C@H]3CCC(=O)[C@@]3(C)CC[C@@H]12",
    "CLASS LABEL": "false (0)"
  }
]

stdin: // param item: CN1C2CCC1CC(OC(=O)c1cc(Cl)cc(Cl)c1)C2 (configuration not stated) ; yields the recorded call
stdout: false (0)
